The values you see were collected from PubChem BioAssay (NCI).

The following compounds are listed with their measured TGI values.
test system: HT29 colon; assay: NCI tumour cell line growth inhibition, 48 h

compound=Cc1oc2c(C(=O)N/N=C\c3ccc(O)cc3O)c[nH]c2c1C target_system="HT29 colon" result="> 48.2 µM"
compound="Cc1ccccc1NC(=O)/C(=N/NC(=O)CC#N)C1C(=O)N(c2ccccc2)N=C1N (stereo not given)" target_system="HT29 colon" result="> 100 µM"
compound=CCOC(=O)[C@@H]1[C@@H]2NC(=O)N[C@@]1(C)Oc1ccccc12 target_system="HT29 colon" result="> 100 µM"
compound=COc1ccc(/C=N/N/C(O)=c2/sc(=C(C#N)C#N)n(-c3ccccc3)c2=N)cc1 target_system="HT29 colon" result="> 100 µM"

# input for lookup
// O=C(Nc1nnc(-c2ccc(Cl)cc2)o1)C(SC(=S)N1CCCCC1)c1ccccc1 (stereo not given) : TGI value = > 75.3 µM

====

test system: RPMI-8226 leukemia; assay: NCI tumour cell line growth inhibition, 48 h
The following molecules are listed with their measured TGI values.

Known results for molecules:
sample_smiles=O=[N+]([O-])c1nccn1COCCO readout_kind=TGI result="> 100 µM"
sample_smiles=Cn1cc(-c2csc(-c3c[nH]c4ccccc34)n2)c2cnccc21 readout_kind=TGI result="5 µM"
sample_smiles=CCCCCCCCCCCC(=O)NCc1ccc(OC(=O)CCCCCCCCCCC)c(OC)c1 readout_kind=TGI result="> 100 µM"
sample_smiles=COc1cccc2c1O/C(=C\c1ncc([N+](=O)[O-])n1C)C2=O readout_kind=TGI result="4.11 µM"

// `CC(C)Oc1ccc(-c2nn([C@@H](C)c3oc4ccc(F)cc4c(=O)c3-c3cccc(F)c3)c3ncnc(N)c23)cc1F` : TGI value = > 100 µM

// `CC(=O)c1c(Nc2cccc(F)c2)[nH]c2c(Cl)cc(Cl)c(Cl)c2c1=O` : TGI value = 2.18 µM

// `[2H]c1nc(C)nc([2H])c1-c1cc(NC[C@@H](C)c2cccc3c(C(=O)NC)ccnc23)ncn1` : TGI value = > 100 µM

// `NS(=O)(=O)c1cc2c(cc1Cl)NC(/C(=N/NC(=O)c1ccncc1)C1C(=O)NC(=O)NC1=O)=NS2(=O)=O` : TGI value = > 100 µM

====

The following molecules are listed with their measured TGI values.
system: T-47D breast; assay: NCI tumour cell line growth inhibition, 48 h

molecule="N#CC(C/C=C/c1ccccc1)NNC(=O)c1c(Cl)c(Cl)c(Cl)c(Cl)c1-c1nc2ccc(C(=O)c3ccccc3)cc2[nH]1 (stereo not drawn)" target_system="T-47D breast" result="63.8 µM"

# input for lookup
// `COc1cc(/C=C/C(=O)c2ccccc2)cc(OC)c1OC` : TGI value = 20.9 µM

====

The following molecules are listed with their measured TGI values.
system: K-562 leukemia; assay: NCI tumour cell line growth inhibition, 48 h

Known results for molecules:
molecule="CCOC(=O)N1CCN(P(=O)(Nc2ccc3nc(NC(=O)OC)[nH]c3c2)Oc2ccccc2)CC1 (stereo unspecified)" result="> 100 µM"
molecule="CN1CCCC2[C@@H]3CCC4=C(O)C(=O)CC[C@]4(C)C3CC[C@@]21C (stereo partly specified)" result="> 100 µM"
molecule="O=C(NC(Cc1ccc(I)cc1)C(=O)O)c1cccc(Br)c1 (stereo unspecified)" result="> 100 µM"

// COC(=O)C(=O)C(C(=O)C(=O)Nc1ccc(OC)cc1[N+](=O)[O-])c1nc2ccc([N+](=O)[O-])cc2[nH]c1=O (stereo unspecified) : TGI value = > 100 µM

// C=C1CC2(CCOc3ccc(Cl)cc32)OC1=O (stereo unspecified) : TGI value = > 31.5 µM

// O=C(OCC1OC(n2cc(C(F)(F)F)c(=O)[nH]c2=O)CC1OC(=O)c1ccc([N+](=O)[O-])cc1)c1ccc([N+](=O)[O-])cc1 (stereo unspecified) : TGI value = > 100 µM

// O=C1OC2C=CCC1C2 (stereo unspecified) : TGI value = > 100 µM

// COc1cc([C@@H]2c3cc4c(cc3[C@@H](OC3OC5CO[C@@H](c6cccs6)OC5C(O)C3O)[C@H]3COC(=O)[C@H]23)OCO4)cc(OC)c1O (stereo partly specified) : TGI value = 17.2 µM

// `CCCCC(=O)OC[n+]1ccc(-c2c(COC(=O)NC(C)C)c(COC(=O)NC(C)C)c3n2CCC3)cc1` : TGI value = > 100 µM

// C=C(C(=O)OC)N1C(=O)CC(C)C1=O (stereo unspecified) : TGI value = 12.8 µM

// `S=C(Nc1ccccc1)c1ccc(CN2CCCCC2)s1` : TGI value = 43.6 µM
